System: A549 cell line
Experiment: Photocytotoxicity (PDT), MTT assay
Assay type: cell-based
Conditions: Homo sapiens, A549, light or radiation study, read-out: IC50 PDT
endpointName: IC50 (nM)
Number in nM, nothing else.

CCN(CC)c1ccc2nc3c(cc(NCCCNC)c4nc(C)ccc43)[s+]c2c1 ... 11900
CCCNc1c(I)c2[s+]c3cc(N(CC)CC)ccc3nc2c2ccc(C)nc12 ... 680
CCCCN(CCCC)c1ccc2nc3c(cc(NCCC)c4nc(C)ccc43)[s+]c2c1 ... 100

Next:
Q. Item CCN(CC)c1ccc2nc3c(cc(N)c4nc(C)ccc43)[s+]c2c1 with A549 cell line - IC50?
A. 1800

----------
Recorded λEm (nm), one value per entry.
Assay: UV-Visible and fluorescence spectrometry
Type: physicochemical
Settings: fluorescence emission, excited at 610 nm
Just so you know, I need the unit written after the number.

Some molecules with recorded λEm (nm):
CCCCCNc1cc2[s+]c3cc(N(CC)CC)ccc3nc2c2ccc(C)nc12 [Compound 15] ... 684 nm
CCN(CC)c1ccc2nc3c(cc(NC)c4nc(C)ccc43)[s+]c2c1 [Compound 18] ... 683 nm
CCCNc1cc2[s+]c3cc(N(CC)CC)ccc3nc2c2ccc(C)nc12.[Cl-] [Compound 14] ... 684 nm
CCCCN(CCCC)c1ccc2nc3c(cc(NCCC)c4nc(C)ccc43)[s+]c2c1 [Compound 24] ... 688 nm
CCCCCN(CCCCC)c1cc2[s+]c3cc(N(CC)CC)ccc3nc2c2ccc(C)nc12 [Compound 20] ... 700 nm
CCN(CC)c1ccc2nc3c(cc(NCCCNC)c4nc(C)ccc43)[s+]c2c1 [Compound 22] ... 686 nm

Q. If you can, please state the reported λEm (nm) value of CCCCCCCCCCNc1cc2[s+]c3cc(N(CC)CC)ccc3nc2c2ccc(C)nc12 [Compound 17] .
A. 684 nm

Q. # query: λEm (nm) of entry CCCCCCCNc1cc2[s+]c3cc(N(CC)CC)ccc3nc2c2ccc(C)nc12 [Compound 16]
A. 684 nm

Q. Any idea what its λEm (nm) is? The molecule is CCCNc1c(I)c2[s+]c3cc(N(CC)CC)ccc3nc2c2ccc(C)nc12 [Compound 23]
A. 666 nm

Q. Dear colleague, I am looking for the recorded λEm (nm) of the following molecule: CCN(CC)c1ccc2nc3c(cc(NCCCN)c4nc(C)ccc43)[s+]c2c1 [Compound 21]
A. 686 nm

Q. Sample CCCN(CCC)c1cc2[s+]c3cc(N(CC)CC)ccc3nc2c2ccc(C)nc12 [Compound 19] — what was its λEm (nm)?
A. 684 nm

Q. Request the reported λEm (nm) associated with CCN(CC)c1ccc2nc3c(cc(N)c4nc(C)ccc43)[s+]c2c1 [Compound 8]
A. 680 nm

----------
Test: UV-Visible and fluorescence spectrometry
Format: physicochemical
Settings: UV-Vis in EtOH
endpointName: Log ε

Known Log ε results, listed for orientation:
CCN(CC)c1ccc2nc3c(cc(NCCCN)c4nc(C)ccc43)[s+]c2c1 [Compound 21] ... 4.82
CCCCCCCCCCNc1cc2[s+]c3cc(N(CC)CC)ccc3nc2c2ccc(C)nc12 [Compound 17] ... 4.89
CCCCCCCNc1cc2[s+]c3cc(N(CC)CC)ccc3nc2c2ccc(C)nc12 [Compound 16] ... 4.89
CCCNc1c(I)c2[s+]c3cc(N(CC)CC)ccc3nc2c2ccc(C)nc12 [Compound 23] ... 4.87
CCN(CC)c1ccc2nc3c(cc(N)c4nc(C)ccc43)[s+]c2c1 [Compound 8] ... 4.93
CCN(CC)c1ccc2nc3c(cc(NC)c4nc(C)ccc43)[s+]c2c1 [Compound 18] ... 4.70
CCCNc1cc2[s+]c3cc(N(CC)CC)ccc3nc2c2ccc(C)nc12.[Cl-] [Compound 14] ... 5.01
CCCCCNc1cc2[s+]c3cc(N(CC)CC)ccc3nc2c2ccc(C)nc12 [Compound 15] ... 4.91
CCCN(CCC)c1cc2[s+]c3cc(N(CC)CC)ccc3nc2c2ccc(C)nc12 [Compound 19] ... 4.67
CCCCCN(CCCCC)c1cc2[s+]c3cc(N(CC)CC)ccc3nc2c2ccc(C)nc12 [Compound 20] ... 4.89

Q. Please give the measured Log ε for this molecule: CCN(CC)c1ccc2nc3c(cc(NCCCNC)c4nc(C)ccc43)[s+]c2c1 [Compound 22]
A. 4.81

Q. Request the reported Log ε associated with CCCCN(CCCC)c1ccc2nc3c(cc(NCCC)c4nc(C)ccc43)[s+]c2c1 [Compound 24]
A. 4.86
